The entries below are paired with their reported growth inhibition.
test: NCI Yeast Anticancer Drug Screen. Data for the rad14 strain (AID 159);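 note: 0% = growth of vehicle-treated control cultures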; settings: S. cerevisiae rad14 strain growth inhibition; at 33.0 µM; stronger effect = higher value
The panel holds about 79,000 compounds, 15% with a hit somewhere; the sample as a whole holds those more often.
Note: unit % is implicit; provide only the numeric part.

Completed entries (count: 5):
1) CN(C)CCOC1(Cc2ccc(F)cc2)CCC(C(C)(C)C)CC1 (stereo unspecified); 66
2) N#CC(=Nc1ccccc1F)Nc1ccccc1F; 10
3) CCOC(=O)/C(=C\c1ccc(C#N)cc1)C(C)=O; 95
4) Oc1ccc2ccccc2c1CCc1c(O)ccc2ccccc12; 89
5) O=C1/C(=C/c2ccccc2)CCCC1CN1CCCCC1 (stereo unspecified); 98

Request: Retrieve growth inhibition measured for `CCOC(=O)c1cc([N+](=O)[O-])c(Sc2ncnc3nc[nH]c23)c([N+](=O)[O-])c1` and print it.
Result: 72

###

The entries below are paired with their reported growth inhibition.
assay: NCI Yeast Anticancer Drug Screen. Data for the rad50EPP+ strain (AID 151);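 note: 0% = growth of vehicle-treated control cultures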; conditions: S. cerevisiae rad50 mutant strain, at 11.0 µM, stronger effect = higher value
The panel holds about 79,000 compounds, 15% with a hit somewhere; the sample as a whole holds those more often.
Note: unit % is implicit; provide only the numeric part.

Request: Retrieve growth inhibition measured for C=C1CCC(O)C/C1=C/C=C1\CCCC2(C)C1CCC2C(C)CCCC(C)C (configuration not stated) and print it.
Result: -22

Request: Retrieve growth inhibition measured for `Cc1csc(=S)n1OC(=O)NC1CCCCC1` and print it.
Result: 99

Request: Retrieve growth inhibition measured for `CS(=O)(=O)OCCN(CCOS(C)(=O)=O)c1ccc(C=Nc2ccc(-c3csc(COc4ccccc4)n3)cc2)cc1` and print it.
Result: 49

Request: Retrieve growth inhibition measured for CCCCCCCCCCCC(O)S(=O)(=O)O (configuration not stated) and print it.
Result: 7

Request: Retrieve growth inhibition measured for `CCCCOCn1c(=O)[nH]c(=O)c2cc(Br)ccc21` and print it.
Result: -50

###

assay: NCI Yeast Anticancer Drug Screen. Data for the rad14 strain (AID 159);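 note: 0% = growth of vehicle-treated control cultures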; settings: S. cerevisiae rad14 strain growth inhibition; at 100.0 µM
About 79,000 compounds went through this panel and 15% of them were active in at least one assay; those are over-represented in the sample as a whole. The source made the active and inactive calls. Rule as the data show it: active = growth inhibition above about 70%; inactive = the rest.
Entry note: the call must match one of 1 (yes) = active, 0 (no) = inactive

Example entries and their recorded answers appear below.
1) Cc1ccc(Cl)cc1NC(=O)OCCN(C)C(=O)Nc1cc(Cl)ccc1C; 0 (no)
2) COC(=O)C1=C(C(=O)OC)C(C(=O)OC)C(C(=O)OC)C(C(=O)OC)(C(=O)OC)C(C(=O)OC)=C1C(=O)OC (stereo unspecified); 1 (yes)
3) CC12C(=O)OC(=O)C(c3ccccc31)c1ccccc12; 0 (no)
4) O=C(NCCCl)Sc1ccc(Cl)cc1; 1 (yes)
5) CNCCCNc1c2ccccc2nc2cccc([N+](=O)[O-])c12; 1 (yes)

Moving on to the next molecule.
Request: Recorded call for `CS(=O)(=O)SCc1ccc([N+](=O)[O-])cc1` ?
Result: 1 (yes)

###

experiment: NCI Yeast Anticancer Drug Screen. Data for the cln2 rad14 strain (AID 165);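 note: 0% = growth equal to vehicle treated cultures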; conditions: S. cerevisiae cln2 rad14 strain, at 5.0 µM (retest, dose inferred, filed as 0.5), stronger effect = higher value
Compounds without any hit were thinned out: in the full panel of roughly 79,000, 15% have a hit.
The entries below are paired with their reported growth inhibition.
Note: unit % is implicit; provide only the numeric part.

Completed entries (count: 5):
1. CSc1nnc(SC)nn1; 57
2. COc1c(O)c(C=O)c(Br)c(C=O)c1O; 12
3. COc1ccc(C(=O)Oc2ccccc2Br)cc1; 0
4. CC(/C=C/c1ccccc1)=N\NC(N)=S; -5
5. N/C(=N/N=C/c1cc(Br)cc(Br)c1O)NO; 7

Pending compound:
Request: Retrieve growth inhibition measured for `Cc1cc(C)c(NC(=S)NC(=O)c2ccccc2)cc1C` and print it.
Result: -4

###

test: NCI Yeast Anticancer Drug Screen. Data for the rad50EPP+ strain (AID 151);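 note: 0% = growth of vehicle-treated control cultures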; settings: S. cerevisiae rad50 mutant strain, at 11.0 µM, stronger effect = higher value
The panel holds about 79,000 compounds, 15% with a hit somewhere; the sample as a whole holds those more often.
Outcome: satisfied for growth inhibition of at least 10%; not satisfied for anything lower.

Example entries and their recorded answers appear below.
1) COc1cc2cc3c4cc(OC)c(OC)cc4cc[n+]3c(C)c2cc1OC; not satisfied
2) CC1OC(O[C@H]2/C=C/C=C/C=C/C=C/C=C/C=C/C=C/[C@H](C)[C@@H](O)[C@@H](C)[C@H](C)OC(=O)C[C@H](O)C[C@H](O)CC[C@@H](O)[C@H](O)C[C@H](O)C[C@]3(O)C[C@H](O)[C@@H](C(=O)O)[C@H](C2)O3)C(O)C(N)C1O (stereo partly specified); satisfied
3) Cc1c2ccnc(C(=O)NCCN(C)C)c2cc2c3cc(O)ccc3n(C)c12; satisfied
4) O=C(NNc1ccccc1)c1ccc(Cl)c(Cl)c1; satisfied
5) O=C(C[n+]1ccc2ccccc2c1)c1ccc2ccccc2c1; not satisfied
6) O=[N+]([O-])c1cc[n+]([O-])cc1; satisfied
7) O=C1/C(=C/c2ccccc2)CCCC1CN1CCCCC1 (stereo unspecified); satisfied
8) CN(C)c1ccc2c(SCC(=O)OCC(=O)[C@@]3(O)CC[C@H]4[C@@H]5CCC6=CC(=O)C=C[C@]6(C)[C@H]5C(=O)C[C@@]43C)c3ccc(N(C)C)cc3nc2c1; not satisfied

Request: Form field: growth inhibition at least 10%? Entry: COC(C(O)CO)C(O)C(O)C(=O)NNc1ccccc1 (stereo unspecified)
Result: satisfied

Request: Form field: growth inhibition at least 10%? Entry: `Cc1cc2c(cc1C)[n+]([O-])c(-c1nc3ccccc3s1)c(N)[n+]2[O-]`
Result: satisfied

###

assay: NCI Yeast Anticancer Drug Screen. Data for the cln2 rad14 strain (AID 165);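 note: 0% = growth equal to vehicle treated cultures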; details: S. cerevisiae cln2 rad14 strain, at 5.0 µM (retest, dose inferred, filed as 0.5), stronger effect = higher value
This is part of a sample that, as a whole, favours compounds with a hit. Of some 79,000 tested, about 15% had one in any assay.
ENDPOINT_LABEL: growth inhibition (%)
Note: unit % is implicit; provide only the numeric part.

1) O=C1C(Br)=C(c2ccccc2)O/C1=C/C(=O)c1ccc(Br)cc1; -13
2) Cc1c(C(C)C)cc(OCCO)cc1C(C)C; 40
3) Cc1cc(C)nc(NS(=O)(=O)c2ccc(Nc3c4ccccc4nc4c(C(=O)NCCO)cccc34)cc2)n1; 16
4) CC[n+]1oc(C(=O)c2ccc(Cl)cc2)c(-c2ccccc2)c1-c1ccccc1.[Cl][Fe]([Cl])([Cl])[Cl]; 17

Pending compound:
Request: Retrieve growth inhibition measured for O=C1/C(=C/c2ccccc2)CCCC1CN1CCCCC1 (stereo not given) and print it.
Result: 65

###

assay: NCI Yeast Anticancer Drug Screen. Data for the sgs1 mgt1 strain (AID 161);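 note: 0% = growth of cultures given vehicle only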; details: S. cerevisiae sgs1 mgt1 strain, at 5.0 µM (retest, dose inferred, filed as 0.5), stronger effect = higher value
About 79,000 compounds went through this panel and 15% of them were active in at least one assay; those are over-represented in the sample as a whole.
The entries below are paired with their reported growth inhibition.
Note: unit % is implicit; provide only the numeric part.

Completed entries (count: 6):
1. C=C(Cl)COC(=O)Nc1cccc(Cl)c1; -14
2. O=C(O)CNC(=S)Nc1ccccc1; -9
3. C[C@@](O)(/C=C/[C@H]1CC=CC(=O)O1)[C@@H](C[C@@H](O)\C=C/C=C\C=C\CO)OP(=O)(O)O; 17
4. NC(N)=NS(=O)(=O)c1ccc(Nc2c3ccccc3nc3c(C(=O)NCCO)cccc23)cc1; 2
5. CCN(CC)CCNc1ccc([N+](=O)[O-])c2nc3ccccc3c(N)c12; -4
6. Nc1ccc(F)cc1S; 31

Pending compound:
Request: Retrieve growth inhibition measured for Cc1ccc(NC(=O)/C(CC2N=c3c(ccc4c(O)c5ccccc5c(O)c34)=NC2O)=N/NC(C)(C)C)cc1 (stereo not drawn) and print it.
Result: -7

###

test: NCI Yeast Anticancer Drug Screen. Data for the rad52 strain (AID 147);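 note: 0% = growth of vehicle-treated control cultures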; details: S. cerevisiae rad52 mutant growth inhibition; at 100.0 µM; stronger effect = higher value
The panel holds about 79,000 compounds, 15% with a hit somewhere; the sample as a whole holds those more often.
The entries below are paired with their reported growth inhibition.
Note: unit % is implicit; provide only the numeric part.

Completed entries (count: 5):
1. O=C1OC(C2=CC(=O)c3ccccc3C2=O)C(Cl)=C1Cl (stereo not given); 91
2. CN(C)C=NC1CCC(C(C)(C)C)CC1 (stereo not given); 99
3. CCc1c[n+]([O-])c(C)cc1[N+](=O)[O-]; 90
4. CC1CC[C@]2(C(=O)O)CCC3(C)C(=CC(=O)C4[C@@]5(C)CCC(=O)C(C)(C)C5CC[C@]43C)[C@@H]2[C@H]1C (stereo not given in full); 97
5. Cc1cc(NCCCCCCCCNc2cc(C)nc3cc(N)ccc23)c2ccc(N)cc2n1; 95

Request: Retrieve growth inhibition measured for `Cc1c(C(C)C)cc(OCCO)cc1C(C)C` and print it.
Result: 77

Request: Retrieve growth inhibition measured for `Cc1c2ccnc(C(=O)NCCN(C)C)c2cc2c3cc(O)ccc3n(C)c12` and print it.
Result: 92

Request: Retrieve growth inhibition measured for `CCCCc1ccc(-n2c(C)c(COC(=O)NC)c(COC(=O)NC)c2C)cc1` and print it.
Result: 93

Request: Retrieve growth inhibition measured for `Cc1ccc2c3ccc4c(c3n(C)c2c1)C(=O)C=CC4=O` and print it.
Result: 22

Request: Retrieve growth inhibition measured for `Cc1cc(C)nc(NS(=O)(=O)c2ccc(Nc3c4ccccc4nc4c(C(=O)NCCO)cccc34)cc2)n1` and print it.
Result: 59
